Target: T1, AP7-AA
T1 chain: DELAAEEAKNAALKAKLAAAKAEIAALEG
Assay: two-hybrid library CCmax;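 also: natural log of median RNA to DNA barcode read ratio; higher means stronger binding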
parameter: interaction score

KRAKQLRKRLQALEWQLAQIRKELQAAEK [4H_APH3]	-1.94
KRLKQLRKRKQAKRWEEAQIEKELQAIEK [4H_APH2]	-1.91
DKLAAIKAKLAANKAKKAALKAKAAALKG [AP2-AA]	-1.6
DELAAEEAKNAALKAKLAAAKAEIAALEG [AP7-AA]	-1.7
KRLKQIEKRLQAKEWEKAQLRKELQALRK [4H_APH4]	-2.06
